# target_entity: human Aurora Kinase A - serine/threonine-protein Kinase 6 (AurA), AURKA (gene 6790)
# test_method_notes: NVS_ENZ_hAurA: NovaScreen (NVS) Enzymatic Assay for human Aurora Kinase A - serine/threonine-protein Kinase 6 (AurA) (AID 2283142)
Records with an inconclusive call do not appear. The source made the active and inactive calls. Rule for the calls: active = hit-call score of the fitted dose curve at least 0.9, where 1 is the maximum; inconclusive = response in the unintended direction; inactive = score below 0.9.
Outcomes: Y = active, N = inactive

{"molecule": "O=C(N[C@H]1CN2CCC1CC2)c1ccc2c(c1)OCCO2", "target_entity": "human Aurora Kinase A - serine/threonine-protein Kinase 6 (AurA), AURKA (gene 6790)", "label": "N"}
{"molecule": "CCCCCCCCCCCCOS(=O)(=O)O", "target_entity": "human Aurora Kinase A - serine/threonine-protein Kinase 6 (AurA), AURKA (gene 6790)", "label": "Y"}
{"molecule": "CCCCCCCCCCCCc1cccc(S(=O)(=O)O)c1", "target_entity": "human Aurora Kinase A - serine/threonine-protein Kinase 6 (AurA), AURKA (gene 6790)", "label": "Y"}
{"molecule": "Clc1cccc(Cl)c1Cl", "target_entity": "human Aurora Kinase A - serine/threonine-protein Kinase 6 (AurA), AURKA (gene 6790)", "label": "N"}
{"molecule": "N#Cc1cccnc1", "target_entity": "human Aurora Kinase A - serine/threonine-protein Kinase 6 (AurA), AURKA (gene 6790)", "label": "N"}
